assay info: Solid storage stability test
Format: physicochemical
stated conditions: original solid before storage
attribute measured: Original morphology

{"compound": "C=CC(=O)Nc1cc(Nc2ncnc(-c3cn(C)c4ccccc34)n2)c(OC)cc1N(C)CCN(C)C [Example 6]", "result": "amorphous"}
{"compound": "C=CC(=O)Nc1cc(Nc2ncnc(-c3cn(C)c4ccccc34)n2)c(OC)cc1N(C)CCN(C)C [Example 9]", "result": "amorphous"}
{"compound": "C=CC(=O)Nc1cc(Nc2ncnc(-c3cn(C)c4ccccc34)n2)c(OC)cc1N(C)CCN(C)C [Example 3]", "result": "amorphous"}
